Provenance of the data: ChEMBL document CHEMBL1697781

Tested on: Hepatotoxicity
experimentalDetails: FDA HLAED, alkaline phosphatase increase
details: human
measuredMetric: Alkaline Phosphatase Increase - Number of Reports

Worked set:
compound	result
Nc1ccn(C[C@@H](CO)OCP(=O)(O)O)c(=O)n1.O.O	< 4
CC(C)(C)NC[C@H](O)COc1cccc2c1CCCC2=O	< 4
O=c1[nH]c(=O)n([C@H]2C[C@H](O)[C@@H](CO)O2)cc1C(F)(F)F	< 4
COc1cc2c(cc1OC)[C@@H](Cc1cc(OC)c(OC)c(OC)c1)[N+](C)(CCCOC(=O)CC/C=C/CCC(=O)OCCC[N+]1(C)CCc3cc(OC)c(OC)cc3[C@H]1Cc1cc(OC)c(OC)c(OC)c1)CC2.[Cl-].[Cl-] (some centres not stated) [MIVACURIUM CHLORIDE]	< 4
Nc1ccc(O)c(C(=O)O)c1	>= 4
NCCCNCCSP(=O)(O)O	< 4
CC(C)NCC(O)COc1ccc(COCCOC(C)C)cc1 (configuration not stated)	< 4
CN1CC[C@]23c4c5ccc(O)c4O[C@H]2C(=O)CC[C@H]3[C@H]1C5 [HYDROMORPHONE]	< 4

Record CCc1c2c(nc3ccc(OC(=O)N4CCC(N5CCCCC5)CC4)cc13)-c1cc3c(c(=O)n1C2)COC(=O)[C@]3(O)CC . Reported Alkaline Phosphatase Increase - Number of Reports: < 4

Looking up CC(CCc1ccccc1)NCC(O)c1ccc(O)c(C(N)=O)c1 (configuration not stated) , I found its Alkaline Phosphatase Increase - Number of Reports recorded as >= 4

For record CCCCCCC(=O)O[C@H]1CC[C@H]2[C@@H]3CCc4cc(O)ccc4[C@H]3CC[C@]12C [ESTRADIOL ENANTHATE] the listed Alkaline Phosphatase Increase - Number of Reports is >= 4

Lab note: measured Alkaline Phosphatase Increase - Number of Reports of CC(C(=O)O)c1cccc(C(=O)c2ccccc2)c1 (configuration not stated) was < 4

Recorded result, CC(C)N1CCN(c2ccc(OCC3COC(Cn4cncn4)(c4ccc(Cl)cc4Cl)O3)cc2)CC1 (configuration not stated) , Alkaline Phosphatase Increase - Number of Reports: < 4

Entry C=CC1=C(C(=O)O)N2C(=O)[C@@H](NC(=O)/C(=N\OCC(=O)O)c3csc(N)n3)[C@H]2SC1 ; Alkaline Phosphatase Increase - Number of Reports = < 4

* * *

Test system: Hepatotoxicity
experimentalDetails: FDA HLAED, lactate dehydrogenase (LDH) increase
details: human
measuredMetric: LDH Increase - Number of Reports

Previously resolved entries follow.
molecule	measuredMetric	result
CCOC(=O)/C=C(C)/C=C/C=C(C)/C=C/c1c(C)cc(OC)c(C)c1C [ETRETINATE]	LDH Increase - Number of Reports	>= 4
COCC(=O)Nc1c(I)c(C(=O)NCC(O)CO)c(I)c(C(=O)N(C)CC(O)CO)c1I (stereo not given) [IOPROMIDE]	LDH Increase - Number of Reports	< 4
CN1CCC[C@H]1c1cccnc1	LDH Increase - Number of Reports	< 4
C[C@@H]1CN([C@H]2CC[C@](C#N)(c3ccc(F)cc3)CC2)CC[C@]1(C(=O)O)c1ccccc1	LDH Increase - Number of Reports	< 4

// next entry
Value of measured LDH Increase - Number of Reports for the entry CO[C@H]1/C=C/O[C@@]2(C)Oc3c(C)c(O)c4c(c3C2=O)C2=NC3(CCN(CC(C)C)CC3)NC2=C(NC(=O)/C(C)=C\C=C\[C@H](C)[C@H](O)[C@@H](C)[C@@H](O)[C@@H](C)[C@H](OC(C)=O)[C@@H]1C)C4=O : < 4

* * *

Tested on: Hepatotoxicity
experimentalDetails: FDA HLAED, gamma-glutamyl transferase (GGT) increase
details: human
measuredMetric: GGT Increase - Number of Reports

Here is how some compounds turned out for GGT Increase - Number of Reports.
> print(dat)
                                   compound                    measuredmetric  result
1              Nc1nc(O)c2ncn(COC(CO)CO)c2n1  GGT Increase - Number of Reports     < 4
2  COc1cc2nc(N3CCN(C(=O)C4CCCO4)CC3)nc(N)c2cc1OC (stereo not given)  GGT Increase - Number of Reports     < 4
3           Cc1ccc(C)c(OCCCC(C)(C)C(=O)O)c1  GGT Increase - Number of Reports     < 4
4     CNS(=O)(=O)Cc1ccc2[nH]cc(CCN(C)C)c2c1  GGT Increase - Number of Reports     < 4
5  COC(=O)C1=C(C)NC(C)=C(C(=O)OC)C1c1ccccc1[N+](=O)[O-]  GGT Increase - Number of Reports     < 4

Record summary for C[C@H]1[C@H](NC(=O)/C(=N\OC(C)(C)C(=O)O)c2csc(N)n2)C(=O)N1S(=O)(=O)O : reported GGT Increase - Number of Reports = < 4

For O=C1CN=C(c2ccccc2)c2cc(Cl)ccc2N1CC1CC1 the compound record lists GGT Increase - Number of Reports as < 4

Summary for this compound, C[C@@H]1C[C@H]2[C@H]3[C@H]([C@@H](O)C[C@]2(C)[C@@]1(O)C(=O)CO)[C@@]1(C)C=CC(=O)C=C1C[C@H]3Cl : GGT Increase - Number of Reports is < 4

Memo: O=C(O)Cc1ccccc1Nc1c(Cl)cccc1Cl , reported GGT Increase - Number of Reports: >= 4

Entry under test: CCN[C@H]1C[C@H](C)S(=O)(=O)c2sc(S(N)(=O)=O)cc21 [DORZOLAMIDE] . Its GGT Increase - Number of Reports was < 4

* * *

Tested on: Hepatotoxicity
experimentalDetails: FDA HLAED, liver enzyme composite activity
details: human
measuredMetric: Composite Activity - Score

Consider the following illustrative entries.
compound	result
CC(=O)O[C@H]1C[C@@H]2CC[C@@H]3[C@H](CC[C@@]4(C)[C@H]3C[C@H]([N+]3(C)CCCCC3)[C@@H]4OC(C)=O)[C@@]2(C)C[C@@H]1N1CCCCC1.[Br-] [VECURONIUM BROMIDE]	Inactive
CN1CCN(C2=Nc3cc(Cl)ccc3Nc3ccccc32)CC1	Active
COc1ccc(CC2c3cc(OC)c(OC)cc3CC[N+]2(C)CCC(=O)OCCCCCOC(=O)CC[N+]2(C)CCc3cc(OC)c(OC)cc3C2Cc2ccc(OC)c(OC)c2)cc1OC (configuration not stated)	Inactive
C#CCN(C)[C@H](C)Cc1ccccc1	Inactive

Form: compound = CO/N=C(\C(=O)N[C@@H]1C(=O)N2C(C(=O)O)=C(COC(C)=O)CS[C@H]12)c1csc(N)n1 ; Composite Activity - Score = Inactive

Composite Activity - Score in this record for CC[C@H]1OC(=O)[C@H](C)[C@@H](O[C@H]2C[C@@](C)(OC)[C@@H](O)[C@H](C)O2)[C@H](C)[C@@H](O[C@@H]2O[C@H](C)C[C@H](N(C)C)[C@H]2O)[C@](C)(O)C[C@@H](C)[C@@H]2N[C@@H](COCCOC)O[C@H]([C@H]2C)[C@]1(C)O : Inactive

For record CC1=C(/C=C/C(C)=C/C=C/C(C)=C\C(=O)O)C(C)(C)CCC1 the listed Composite Activity - Score is Active

* * *

Kindly supply the reported Composite Activity - Active values for the records listed here.
Tested on: Hepatotoxicity
experimentalDetails: FDA HLAED, liver enzyme composite activity
details: human
# output: bare number, no unit

Memo: C[C@H]1C[C@H]2[C@@H]3CCC4=CC(=O)C=C[C@]4(C)[C@@]3(F)[C@@H](O)C[C@]2(C)[C@@]1(O)C(=O)CCl [CLOBETASOL] , reported Composite Activity - Active: 0

Briefly, Composite Activity - Active measured for CC1(C)O[C@@H]2C[C@H]3[C@@H]4C[C@H](F)C5=CC(=O)C=C[C@]5(C)[C@H]4[C@@H](O)C[C@]3(C)[C@]2(C(=O)CO)O1 [FLUNISOLIDE] : 0

Entry under test: CN(C)CC/C=C1/c2ccccc2COc2ccc(CC(=O)O)cc21 [OLOPATADINE] . Its Composite Activity - Active was 0

Please fill in: Composite Activity - Active reported for Cc1ccnc2c1NC(=O)c1cccnc1N2C1CC1 [NEVIRAPINE] = 5

Just so you know, measured Composite Activity - Active for CCCCC[C@H](O)/C=C/[C@@H]1[C@H]2C/C(=C/CCCC(=O)O)O[C@H]2C[C@H]1O [EPOPROSTENOL] came out at 0

Sample Cc1ncc([N+](=O)[O-])n1CCO [METRONIDAZOLE] ; Composite Activity - Active observed: 1

The molecule listed as CCOc1ccc2ccccc2c1C(=O)N[C@@H]1C(=O)N2[C@@H]1SC(C)(C)[C@@H]2C(=O)O [NAFCILLIN] has a reported Composite Activity - Active of 1

Kindly note the recorded Composite Activity - Active for Cc1cc(C2CCCCC2)n(O)c(=O)c1 [CICLOPIROX] , which is 0

The molecule listed as COC(=O)C1=C(C)NC(C)=C(C(=O)OC(C)C)C1c1cccc2nonc12 (configuration not stated) [ISRADIPINE] shows Composite Activity - Active equal to 0

The molecule identified as N=C(N)N/N=C/c1c(Cl)cccc1Cl [GUANABENZ] registered its Composite Activity - Active at 0

Form field Composite Activity - Active, entry O=C(O)CCc1nc(-c2ccccc2)c(-c2ccccc2)o1 [OXAPROZIN] : 0

Reported Composite Activity - Active of CC[C@@H](CO)NCCN[C@@H](CC)CO [ETHAMBUTOL] : 0

Reported Composite Activity - Active for C[C@]12C=CC(=O)C=C1CC[C@@H]1[C@@H]2C(=O)C[C@@]2(C)[C@H]1CC[C@]2(O)C(=O)CO [PREDNISONE] was 0

Just so you know, measured Composite Activity - Active for CSc1ccc2c(c1)N(CCC1CCCCN1C)c1ccccc1S2 (configuration not stated) [THIORIDAZINE] came out at 0

Please fill in: Composite Activity - Active reported for CNC(=C[N+](=O)[O-])NCCSCc1csc(CN(C)C)n1 [NIZATIDINE] = 0

response.value for N#Cc1cc(NC(=O)C(=O)O)c(Cl)c(NC(=O)C(=O)O)c1 [LODOXAMIDE] (field: Composite Activity - Active) = 0

The reported value for CC[C@H](C)C(=O)O[C@H]1C[C@H](O)C=C2C=C[C@H](C)[C@H](CC[C@@H](O)C[C@@H](O)CC(=O)O)[C@H]21 [PRAVASTATIN] in terms of Composite Activity - Active is 4
